Target: T1, nSR100 (Mus musculus, UniProt Q8BKA3)
T1 construct: host or cells: mouse N2A cells
T1 sequence (Q8BKA3 1-608): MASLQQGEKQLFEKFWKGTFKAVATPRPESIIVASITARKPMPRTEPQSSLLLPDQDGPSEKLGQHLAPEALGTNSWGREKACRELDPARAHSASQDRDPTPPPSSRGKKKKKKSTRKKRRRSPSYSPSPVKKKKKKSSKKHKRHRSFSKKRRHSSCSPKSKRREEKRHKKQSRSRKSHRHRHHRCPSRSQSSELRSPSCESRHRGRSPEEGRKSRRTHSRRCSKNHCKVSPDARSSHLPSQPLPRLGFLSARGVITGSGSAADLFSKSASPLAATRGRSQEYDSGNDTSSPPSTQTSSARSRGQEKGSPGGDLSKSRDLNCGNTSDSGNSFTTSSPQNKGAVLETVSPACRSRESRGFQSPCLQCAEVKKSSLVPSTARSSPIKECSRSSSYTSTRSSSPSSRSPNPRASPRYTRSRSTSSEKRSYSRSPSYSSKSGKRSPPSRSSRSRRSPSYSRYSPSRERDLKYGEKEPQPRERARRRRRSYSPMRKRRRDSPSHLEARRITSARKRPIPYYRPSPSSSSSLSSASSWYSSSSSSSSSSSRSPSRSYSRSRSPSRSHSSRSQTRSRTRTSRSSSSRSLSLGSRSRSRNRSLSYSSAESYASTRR
Test: AP-MS nSR100 interaction partners from mouse N2A cells (Table 5)
Format: binding
Conditions: bait Srrm4, 0.1 added to prevent division by 0
measured-attribute: FoldChange between the prey Avg spectra of the bait and control purifications
One number for each entry.

- molecule: "Rbmx2 (protein, UniProt Q8R0F5 1-326, looked up) RNA-binding motif protein, …: MNPLTKVKLINELNEREVQLGVAEKVSWHSEYKHSAWIFVGGLPYELTEGDIICVFSQYGEIVNINLVRDKKTGKSKGFCFLCYEDQRSTVLAVDNFNGIKIKGRTIRVDHVSNYRAPQESEDVDDVTRELQEKGCGVKTPPSSPPEVSEDEDAKLTKKHKKDKKEKKKRKKEKTEGQAQAEQPSCSRSATVKEKKDERASRKHSSKTSERAQKSEHRESKKSHSGSPDGRSSYHARAEDPECKARKEKPKHEHKSASRREAEEKSRERERGRSSGTHSGRHRGHSDGRSHRSRSRSRSPDKSHRHKKYRHSRERDSYHGSDRRHH"
  experimental-value: 9

Any idea what its FoldChange between the prey Avg spectra of the bait and control purifications is? The molecule is U2af1 (protein, UniProt Q9D883 2-239, looked up) Splicing factor U2AF 35 kDa …: AEYLASIFGTEKDKVNCSFYFKIGACRHGDRCSRLHNKPTFSQTIALLNIYRNPQNSSQSADGLRCAVSDVEMQEHYDEFFEEVFTEMEEKYGEVEEMNVCDNLGDHLVGNVYVKFRREEDAEKAVIDLNNRWFNGQPIHAELSPVTDFREACCRQYEMGECTRGGFCNFMHLKPISRELRRELYGRRRKKHRSRSRSRERRSRSRDRGRGGGGGGGGGGGRERDRRRSRDRERSGRF
4.6

Value source: patent US10772928B2
